assay: Permeability across human Caco2 cells assessed as drug recovery; assay type: ADME, cell-based; settings: Caco-2, read-out: Drug recovery
Task for the reader: assign each of the following compounds its reported recovery.

For the compound shown here, CCCCc1ccc(NC(=O)C2CC2c2cccnc2)cc1 (configuration not stated) , give the reported recovery.
< 70%

recovery lookup needed for O=C(c1cc(-c2cccnc2)[nH]n1)N1CCN(C(c2ccccc2)c2ccccc2)CC1 , thanks.
< 70%

----------
So I've got a bunch of molecules here, and I need their inhibition at 3 µM values.
molecular target: UniProt P08684; test: Inhibition of CYP3A4 (unknown origin) at 3 uM relative to control; assay type: ADME
Sequence (P08684 whole entry): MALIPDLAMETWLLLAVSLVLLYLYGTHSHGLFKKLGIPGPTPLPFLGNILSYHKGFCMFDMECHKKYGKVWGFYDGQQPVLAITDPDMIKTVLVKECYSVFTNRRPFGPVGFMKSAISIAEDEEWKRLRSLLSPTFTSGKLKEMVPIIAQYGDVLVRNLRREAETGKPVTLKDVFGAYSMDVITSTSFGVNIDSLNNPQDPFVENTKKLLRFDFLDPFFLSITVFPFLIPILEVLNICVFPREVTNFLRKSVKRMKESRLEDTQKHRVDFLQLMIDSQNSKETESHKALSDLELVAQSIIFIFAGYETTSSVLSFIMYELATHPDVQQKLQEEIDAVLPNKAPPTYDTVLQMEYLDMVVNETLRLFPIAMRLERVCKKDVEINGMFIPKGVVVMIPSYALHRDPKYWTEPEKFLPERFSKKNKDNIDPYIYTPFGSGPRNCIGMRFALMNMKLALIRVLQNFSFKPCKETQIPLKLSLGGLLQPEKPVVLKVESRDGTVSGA
Provide the measurement as a number trailed by its unit.

Record request: inhibition at 3 µM value, item CCCCc1ccc(NC(=O)C2CC2c2cccnc2)cc1 (configuration not stated)
63%

// returns reported inhibition at 3 µM for input O=C(c1cc(-c2cccnc2)[nH]n1)N1CCN(C(c2ccccc2)c2ccccc2)CC1
20%

Source of measurements: ChEMBL document CHEMBL3797081
